target: JAK3 (Homo sapiens); test: Inhibition of a panel of kinases, in vitro HotSpot kinase assay: JAK3; assay type: biochemical; details: D-compounds panel data; 1 μM ATP; read-out: IC50 JAK3
Sequence (P52333 whole entry): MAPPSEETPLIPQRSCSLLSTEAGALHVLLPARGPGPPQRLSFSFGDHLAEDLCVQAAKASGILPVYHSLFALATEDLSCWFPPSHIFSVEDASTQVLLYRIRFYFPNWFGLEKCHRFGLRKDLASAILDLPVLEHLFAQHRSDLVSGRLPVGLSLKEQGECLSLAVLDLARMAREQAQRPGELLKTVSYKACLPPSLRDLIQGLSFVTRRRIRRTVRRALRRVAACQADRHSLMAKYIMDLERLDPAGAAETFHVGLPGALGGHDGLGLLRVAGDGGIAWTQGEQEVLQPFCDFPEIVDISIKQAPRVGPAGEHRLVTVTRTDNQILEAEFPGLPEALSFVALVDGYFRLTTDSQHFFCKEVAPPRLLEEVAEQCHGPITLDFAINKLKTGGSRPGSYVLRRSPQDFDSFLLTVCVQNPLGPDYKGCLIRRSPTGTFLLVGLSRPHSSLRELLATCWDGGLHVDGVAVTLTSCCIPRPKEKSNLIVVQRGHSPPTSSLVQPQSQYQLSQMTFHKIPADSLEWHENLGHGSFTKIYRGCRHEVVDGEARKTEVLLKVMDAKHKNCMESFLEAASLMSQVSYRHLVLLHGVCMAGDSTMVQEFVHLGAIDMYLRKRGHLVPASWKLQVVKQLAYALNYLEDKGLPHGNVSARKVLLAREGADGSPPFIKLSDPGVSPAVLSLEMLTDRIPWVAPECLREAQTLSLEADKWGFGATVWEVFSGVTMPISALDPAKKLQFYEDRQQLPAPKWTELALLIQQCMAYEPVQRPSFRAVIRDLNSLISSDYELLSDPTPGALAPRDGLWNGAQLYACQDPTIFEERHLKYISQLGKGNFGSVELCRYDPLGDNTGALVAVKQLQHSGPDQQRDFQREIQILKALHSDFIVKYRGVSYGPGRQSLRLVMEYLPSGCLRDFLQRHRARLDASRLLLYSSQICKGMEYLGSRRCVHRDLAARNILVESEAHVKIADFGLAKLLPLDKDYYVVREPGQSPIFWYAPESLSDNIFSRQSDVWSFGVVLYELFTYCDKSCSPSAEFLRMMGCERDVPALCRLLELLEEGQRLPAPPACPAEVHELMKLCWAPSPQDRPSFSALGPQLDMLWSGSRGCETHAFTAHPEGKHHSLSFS
observed_property: IC50

Example results:
| compound | test_system | IC50 |
| --- | --- | --- |
| CC(C)n1nnc2cc(C(=O)N[C@@H]3CCCN(c4cnc(C(N)=O)c(Nc5cnn(C)c5)n4)[C@@H]3C)ccc21 [Example D-255] | JAK3 (Homo sapiens) | 0.1 to 1 µM |
| C[C@@H]1[C@H](NC(=O)c2ccc3scnc3c2)CCCN1c1cnc(C(N)=O)c(Nc2ccc(N3CCN(C)CC3)cc2)n1 [Example D-226] | JAK3 (Homo sapiens) | 0.1 to 1 µM |
| C[C@@H]1[C@H](NC(=O)N(C)C)CCCN1c1cnc(C(N)=O)c(Nc2ccc(N3CCN(C)CC3)cc2F)n1 [Example D-52] | JAK3 (Homo sapiens) | > 10 µM |
| C[C@@H]1[C@H](NC(=O)c2ccc(C3CC3)cc2F)CCCN1c1cnc(C(N)=O)c(Nc2ccc(N3CCN(C)CC3)nc2)n1 [Example D-13] | JAK3 (Homo sapiens) | 1 to 10 µM |
| C[C@@H]1[C@H](NC(=O)c2ccc3c(cnn3C)c2)CCCN1c1cnc(C(N)=O)c(Nc2ccc(N3CCN(C)CC3)cc2)n1 [Example D-234] | JAK3 (Homo sapiens) | 0.1 to 1 µM |

The measured IC50 associated with Cn1cc(Nc2nc(N3CCC(F)(F)[C@H](NC(=O)c4ccc(C5CC5)cc4)C3)cnc2C(N)=O)cn1 [Example D-192] reads 1 to 10 µM

The measured IC50 associated with C[C@@H]1[C@H](NC(=O)c2ccc(C3CC3)cc2)CCCN1c1cnc(C(N)=O)c(Nc2cnn(C3CCN(CC(F)(F)F)CC3)c2)n1 [Example D-293] reads 1 to 10 µM

The measured IC50 associated with C[C@@H]1[C@H](NC(=O)c2c[nH]c(C3CC3)n2)CCCN1c1cnc(C(N)=O)c(Nc2cnn(C)c2)n1 [Example D-264] reads 1 to 10 µM

The measured IC50 associated with C[C@@H]1[C@H](NC(=O)c2ccc(C3CC3)cc2)CCCN1c1cnc(C(N)=O)c(Nc2cn[nH]c2)n1 [Example D-282] reads > 10 µM

The measured IC50 associated with Cc1ccc(-c2cnc([C@@H]3CCCN(c4cnc(C(N)=O)c(Nc5cc(C)ns5)n4)[C@@H]3C)[nH]2)cc1 [Example D-131] reads 0.1 to 1 µM

The measured IC50 associated with C[C@@H]1[C@H](NC(=O)N(C)C)CCCN1c1cnc(C(N)=O)c(Nc2cnn(C)c2)n1 [Example D-128] reads 1 to 10 µM

The measured IC50 associated with C[C@@H]1[C@H](NC(=O)c2ccc(C(N)=O)cc2)CCCN1c1cnc(C(N)=O)c(Nc2cnn(C)c2)n1 [Example D-268] reads 1 to 10 µM

The measured IC50 associated with C[C@@H]1[C@H](NC(=O)c2ccc(C3CC3)cc2)CCCN1c1cnc(C(N)=O)c(Nc2ccc(OC3CCCN(C)C3)cc2)n1 (stereo partly drawn) [Example D-105] reads 0.1 to 1 µM

The measured IC50 associated with CCOCCOc1ccc(Nc2nc(N3CCC[C@@H](NC(=O)c4ccc(C5CC5)cc4)[C@H]3C)cnc2C(N)=O)cc1 [Example D-299] reads > 10 µM

The measured IC50 associated with C[C@@H]1[C@H](NC(=O)c2ccc(C3CC3)cc2)CCCN1c1cnc(C(N)=O)c(Nc2cc(C3CCN(C4CCCC4)CC3)ns2)n1 [Example D-311] reads 0.1 to 1 µM

The measured IC50 associated with Cn1cc(Nc2nc(N3CCC[C@@H](n4ccc5cc(C6CC6)ncc5c4=O)C3)cnc2C(N)=O)cn1 [Example D-225] reads 0.1 to 1 µM

The measured IC50 associated with Cn1cc(Nc2nc(N3CCC[C@H]4[C@@H]3CCCN4C(=O)c3ccc(C4CC4)cc3)cnc2C(N)=O)cn1 [Example D-47] reads > 10 µM

The measured IC50 associated with C[C@@H]1[C@H](NC(=O)c2ccc(C3CC3)cc2F)CCCN1c1cnc(C(N)=O)c(Nc2cc(CN3CCCCC3)ns2)n1 [Example D-176] reads 0.1 to 1 µM

The measured IC50 associated with C[C@@H]1[C@H](NC(=O)c2ccc(C3CC3)cc2)CCCN1c1cnc(C(N)=O)c(Nc2cnc(N3CCN(C)CC3)nc2)n1 [Example D-318] reads > 10 µM

The measured IC50 associated with C[C@@H]1[C@H](NC(=O)c2ccc(C3CC3)cc2)CCCN1c1cnc(C(N)=O)c(Nc2cnn(CC(C)(C)O)c2)n1 [Example D-215] reads > 10 µM

The measured IC50 associated with Cn1cc(Nc2nc(N3C4CCC(NC(=O)c5ccc(C6CC6)cc5)C3CC4)cnc2C(N)=O)cn1 (single isomer, unassigned) [Example D-199] reads 1 to 10 µM

The measured IC50 associated with C[C@@H]1[C@H](NC(=O)c2ccc(N(C)C)cn2)CCCN1c1cnc(C(N)=O)c(Nc2cnn(C)c2)n1 [Example D-84] reads > 10 µM

The measured IC50 associated with C[C@@H]1CC[C@H](NC(=O)c2ccc(C3CC3)cc2)CN1c1cnc(C(N)=O)c(Nc2ccc(N3CCN(C)CC3)cc2)n1 [Example D-153] reads 0.1 to 1 µM

The measured IC50 associated with Cc1csc(Nc2nc(N3CCC[C@@H](NC(=O)c4ccc(C5CC5)cc4F)[C@H]3C)cnc2C(N)=O)n1 [Example D-63] reads > 10 µM

The measured IC50 associated with CN(C)c1ccc2c(=O)n([C@@H]3CCCN(c4cnc(C(N)=O)c(Nc5cnn(C)c5)n4)C3)ccc2c1 [Example D-155] reads 0.1 to 1 µM

The measured IC50 associated with CN1CCN(c2ccc(Nc3nc(N4CCC[C@@H](n5ccc6cc(C7CC7)ccc6c5=O)C4)cnc3C(N)=O)nc2)CC1 [Example D-179] reads > 10 µM

// data source = patent US20210070748A1
